Taken from ChEMBL document CHEMBL3137667.

Details: human
For each entry below, report its Hepatotoxicity (benign tumour) value.
One number for each entry.

Completed entries (count: 5):
# compound, Hepatotoxicity (benign tumour)
records = [
    ("O=C(O)Cc1ccccc1Oc1ccc(Cl)cc1Cl", 0),
    ("C[C@]12C/C(=C/O)C(=O)C[C@@H]1CC[C@@H]1[C@@H]2CC[C@@]2(C)[C@H]1CC[C@]2(C)O", 11),
    ("O=c1cc(Cc2ccccc2)[nH]c(=S)[nH]1", 0),
    ("CC(=O)c1ccc2c(c1)N(CC(C)N(C)C)c1ccccc1S2 (stereo unspecified)", 0),
    ("COCc1c(C(C)C)nc(C(C)C)c(/C=C/[C@@H](O)C[C@@H](O)CC(=O)O)c1-c1ccc(F)cc1", 0),
]

For each entry beneath this line, provide reported Hepatotoxicity (benign tumour).
1. OCc1cc(C(O)CNCCCCCCOCCCCc2ccccc2)ccc1O (stereo unspecified)
2. Nc1ccc(S(N)(=O)=O)cc1 [SULFANILAMIDE]
3. O=C(NCCN1CCOCC1)c1ccc(Cl)cc1 [MOCLOBEMIDE]
4. O=C(c1ccc(OCCN2CCCCC2)cc1)c1c(-c2ccc(O)cc2)sc2cc(O)ccc12
5. O=c1[nH]c(=O)n(C2CCCO2)cc1F (stereo unspecified)
6. NC(CO)C(=O)NNCc1ccc(O)c(O)c1O (stereo unspecified) [BENSERAZIDE]

Response:
[0, 0, 0, 0, 0, 0]

// each compound listed below needs its Hepatotoxicity (benign tumour)
1. CCOC(=O)/C=C(C)/C=C/C=C(C)/C=C/c1c(C)cc(OC)c(C)c1C [ETRETINATE]
2. C[C@]1(O)CC[C@H]2[C@@H]3CCC4=CC(=O)CC[C@]4(C)[C@@]3(F)[C@@H](O)C[C@@]21C
3. C[C@]12CC[C@@H]3c4ccc(OS(=O)(=O)O)cc4CC[C@H]3[C@@H]1CCC2=O
4. CC(C)C[C@H](NC(=O)[C@@H](COC(C)(C)C)NC(=O)[C@H](Cc1ccc(O)cc1)NC(=O)[C@H](CO)NC(=O)[C@H](Cc1c[nH]c2ccccc12)NC(=O)[C@H](Cc1cnc[nH]1)NC(=O)[C@@H]1CCC(=O)N1)C(=O)N[C@@H](CCCNC(=N)N)C(=O)N1CCC[C@H]1C(=O)NNC(N)=O
5. CN(C)CCN1C(=O)c2cccc3cc(N)cc(c23)C1=O [AMONAFIDE]

Response:
1: 0; 2: 1; 3: 1; 4: 0; 5: 0

* * *

Assay: Times to onset, minimal and maximal, observed in the indexed observations. [column 'DELAI' in source]
Conditions: human
Answer each item with its documented Hepatotoxicity (time to onset).

Example entries begin here.
# molecule, result
measured = [
    ("NC(=O)CC[C@@H]1NC(=O)[C@H](Cc2ccccc2)NC(=O)[C@H](Cc2ccc(O)cc2)NC(=O)CCSSC[C@@H](C(=O)N2CCC[C@H]2C(=O)N[C@H](CCCN=C(N)N)C(=O)NCC(N)=O)NC(=O)[C@H](CC(N)=O)NC1=O [DESMOPRESSIN]", "5 days - 4 weeks"),
    ("CN[C@H]1CC[C@@H](c2ccc(Cl)c(Cl)c2)c2ccccc21 [SERTRALINE]", "3 days - 5 months"),
]

I have 8 molecules here; please give me Hepatotoxicity (time to onset) for each one.
1. C=CCOc1ccccc1OCC(O)CNC(C)C (stereo not given) [OXPRENOLOL]
2. CC(C(=O)O)c1ccc(-c2ccccc2)c(F)c1 (stereo not given) [FLURBIPROFEN]
3. CCc1oc2ccccc2c1C(=O)c1ccc(O)cc1 [BENZARONE]
4. CC(C)[N+](C)(CCC(C(N)=O)(c1ccccc1)c1ccccc1)C(C)C [ISOPROPAMIDE]
5. [H]/N=C(\N/C(=N/[H])Nc1ccc(Cl)cc1)NC(C)C [PROGUANIL]
6. CC(C)[C@@H](CC[C@@H](C)[C@H]1CC[C@H]2[C@@H]3[C@H](O)C[C@H]4C[C@@H](NCCCNCCCCN)CC[C@]4(C)[C@H]3CC[C@]12C)OS(=O)(=O)O [SQUALAMINE]
7. c1ccc2[nH]c(-c3cscn3)nc2c1 [THIABENDAZOLE]
8. NCC(=O)CCC(=O)O [AMINOLEVULINIC ACID]

Response:
1. 1 day - 15 days
2. 1 day - 2 months
3. 2 weeks - 2 years
4. 3 months
5. 6 weeks
6. 2 days - 5 days
7. 2 weeks - 1.5 years
8. 3 days

State recorded Hepatotoxicity (time to onset) for all listed molecules.
1. CN1CCN(C2=Nc3cc(Cl)ccc3Nc3ccccc32)CC1 [CLOZAPINE]
2. O=C1Nc2ccccc2C1(c1ccc(O)cc1)c1ccc(O)cc1 [OXYPHENISATINE]
3. C[C@]12CC[C@H]3[C@@H](CCC4=CC(=O)CC[C@@]43C)[C@@H]1CC[C@@H]2O [TESTOSTERONE]

Response:
["3 days - 6 weeks", "1 week - 13 years", "3 months - 11 years"]

Consider the following items and state reported Hepatotoxicity (time to onset) for each.
1. CCc1oc2ccccc2c1C(=O)c1cc(Br)c(O)c(Br)c1 [BENZBROMARONE]
2. O=C(CCCCC(=O)Nc1c(I)cc(I)c(C(=O)O)c1I)Nc1c(I)cc(I)c(C(=O)O)c1I [IODIPAMIDE]

Response:
1: 1.5 months - 5 months; 2: 3 days - 1 week
